# PROCEDURE DETAILS: Therapeutic index, ratio of IC50 for human H9 cells to EC50 for HIV
# Format: cell-based
# CONDITION: read-out: Ratio IC50/EC50
MEASURED PROPERTY: selectivity ratio

- COc1cnc2ccc(=O)n3c4ccccc4c1c23: > 391
